Measured normalized growth of individual entries
PROTOCOL TEXT: chemical genetic growth profiling, strain panel (AID 1159580);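 note: tested at 20 µM; growth read once vehicle control cultures reached saturation at 30 °C; 1 = growth at the plate median or of vehicle wells; lower values mean less growth of the strain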
RUN PARAMETERS: S. cerevisiae deletion strains, growth OD, locus YOL012C, strain htz1
The whole screen tested about 5,500 compounds, of which about 2,000 (36%) were called active. Not shown: some 18% with an inconclusive outcome. Some of the results follow.

{"columns": ["MOLECULE", "normalized growth"],
 "data": [
  ["OC[C@H]1O[C@@H](O[C@@H]2[C@@H](CO)O[C@](O)(CO)[C@H]2O)[C@H](O)[C@@H](O)[C@H]1O", 0.596],
  ["NCC(N)C(=O)c1ccccc1 (stereo unspecified)", 1.74],
  ["Cc1cc(=O)[nH]c(=S)[nH]1", 1.27],
  ["CNCCCC12CCC(c3ccccc31)c1ccccc12", 0.584],
  ["C/C1=C/CC(C)(C)/C=C/C/C(C)=C/CC1", 1.09],
  ["OC[C@H]1O[C@@](CO)(O[C@@H]2O[C@H](CO)[C@@H](O)[C@H](O)[C@H]2O)[C@@H](O[C@@H]2O[C@H](CO)[C@@H](O)[C@H](O)[C@H]2O)[C@@H]1O", 1.32],
  ["CC(=O)Oc1ccc(C(c2ccc(OC(C)=O)cc2)c2ccccn2)cc1", 1.18],
  ["CC(Cc1cccc(C(F)(F)F)c1)NCCOC(=O)c1ccccc1 (stereo unspecified)", 0.888],
  ["CC(C)CCCC(C)C1CCC2C3CC[C@H]4C[C@@H](O)CC[C@]4(C)C3CC[C@]12C (stereo partly specified)", 1.64],
  ["CC(C)CCCC(C)C1CC[C@@]2(C)C3=C(CC[C@]12C)[C@@]1(C)CC[C@H](O)C(C)(C)C1CC3 (stereo partly specified)", 0.94],
  ["CC12CCC3C(CC3(C)C)C(C)(CCC1=O)O2 (stereo unspecified)", 0.815],
  ["CC(=O)O[C@@H]1CC2C(C)(C)[C@H](O)C=C[C@]2(C)C2CC[C@]3(C)C(=CC(=O)O[C@H]3c3ccoc3)[C@@]21C (stereo partly specified)", 1.25],
  ["CC(=O)Oc1ccc(O)cc1", 0.741],
  ["CC(=O)c1cc(CC=C(C)C)c(O)c(CC=C(C)C)c1", 0.849],
  ["CC(=O)Oc1cccc(O)c1", 0.912],
  ["CCCOc1ccc2nc(NC(=O)OC)[nH]c2c1", 0.822],
  ["CC(=O)OCC(=O)[C@@]1(O)[C@H](C)CC2C3CCC4=CC(=O)C=C[C@]4(C)[C@@]3(F)[C@@H](O)C[C@@]21C (stereo partly specified)", 0.869],
  ["CC(C)=CCCC(C)[C@@H]1CC[C@]2(C)C3=C(CC[C@@]12C)C1(C)CC[C@H](O)C(C)(C)C1CC3 (stereo partly specified)", 1.41],
  ["CS(=O)(=O)c1ccc([C@@H](O)[C@@H](CO)NC(=O)C(Cl)Cl)cc1", 1.83],
  ["C/C1=C\\CC(C)(C)/C=C/CC2(C)OC2CC1 (stereo unspecified)", 1.6],
  ["O=C(O)c1cc(O)c2c(c1)[C@@H]([C@H]1c3cc(C(=O)O)cc(O)c3C(=O)c3c(O[C@H]4O[C@H](CO)[C@@H](O)[C@H](O)[C@H]4O)cccc31)c1cccc(O[C@H]3O[C@H](CO)[C@@H](O)[C@H](O)[C@H]3O)c1C2=O", 0.926],
  ["CC(C)=CCCC(C)C1CC[C@@]2(C)C3=C(CC[C@]12C)C1(C)CC[C@H](O)C(C)(C)C1CC3 (stereo partly specified)", 1.68],
  ["CCOC(=O)[C@H](CCc1ccccc1)N[C@@H](C)C(=O)N1CCC[C@H]1C(=O)O", 0.639],
  ["Cc1c(C)c2c(c(C)c1O)CCC(C)(CCCC(C)CCCC(C)CCCC(C)C)O2 (stereo unspecified)", 0.962],
  ["CC1(C)CC2C1CC[C@]1(CBr)CCC3C(CC(=O)O)C(=O)O[C@@]32C1 (stereo partly specified)", 1],
  ["CC(=O)c1ccc(O)c(CC=C(C)C)c1", 1.06]
]}

====

PROTOCOL TEXT: chemical genetic growth profiling, strain panel (AID 1159580);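 note: tested at 20 µM; growth read once vehicle control cultures reached saturation at 30 °C; 1 = growth at the plate median or of vehicle wells; lower values mean less growth of the strain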
RUN PARAMETERS: S. cerevisiae deletion strains, growth OD, locus YGL240W, strain doc1, stronger effect = lower value
Screen size: about 5,500 compounds; about 2,000 (36%) were called active. Inconclusive results (about 18%) are left out. The list shows a part of the results.
# normalized growth per entry

{"columns": ["COMPOUND", "normalized growth"],
 "data": [
  ["C=C1C[C@]23C[C@@]1(O)CC[C@H]2[C@@]12C=C[C@H](O)[C@@](C)(C(=O)O1)[C@H]2[C@@H]3C(=O)O", 1.02],
  ["CS(=O)(=O)Nc1ccc([N+](=O)[O-])cc1Oc1ccccc1", 0.995],
  ["CCOC(=O)NNc1nncc2ccccc12", 0.998],
  ["Nc1ccc(S(=O)(=O)NC(=O)c2ccccc2)cc1", 0.998],
  ["O=C(NCO)c1cccnc1", 0.988],
  ["CN(C)C(=O)Oc1cccc([N+](C)(C)C)c1", 0.986],
  ["CC(C)C[C@@H](CN)CC(=O)O", 1],
  ["O=C(O)c1ccc(S(=O)(=O)N(Cl)Cl)cc1", 1.02],
  ["CC(C)=CC1C(C(=O)O)C1(C)C (stereo unspecified)", 0.974],
  ["CC(=O)Oc1cccc(O)c1", 1.02],
  ["Cc1c(C)c2c(c(C)c1O)CCC(C)(CCCC(C)CCCC(C)CCCC(C)C)O2 (stereo unspecified)", 0.981]
]}

====

PROTOCOL TEXT: chemical genetic growth profiling, strain panel (AID 1159580);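 note: tested at 20 µM; growth read once vehicle control cultures reached saturation at 30 °C; 1 = growth at the plate median or of vehicle wells; lower values mean less growth of the strain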
RUN PARAMETERS: S. cerevisiae deletion strains, growth OD, locus YGL167C, strain pmr1, stronger effect = lower value
Hit rate of the full screen: of about 5,500 compounds, about 2,000 (36%) were called active. Another 18% or so got no clear call; they are omitted. Some of the results follow.
Measured normalized growth, listed per entry.

{"columns": ["MOLECULE", "normalized growth"],
 "data": [
  ["O=C(O)c1cccnc1", 1.01],
  ["O=C(O)c1cc(O)c2c(c1)[C@@H]([C@H]1c3cc(C(=O)O)cc(O)c3C(=O)c3c(O[C@H]4O[C@H](CO)[C@@H](O)[C@H](O)[C@H]4O)cccc31)c1cccc(O[C@H]3O[C@H](CO)[C@@H](O)[C@H](O)[C@H]3O)c1C2=O", 1.03],
  ["CCCc1cc(=O)[nH]c(=S)[nH]1", 1.02],
  ["C=C1c2cccc(O)c2C(O)=C2C(=O)[C@]3(O)C(O)=C(C(N)=O)C(=O)[C@@H](N(C)C)[C@@H]3[C@@H](O)[C@H]12", 1.02],
  ["C[n+]1ccccc1/C=N/O", 1.01],
  ["OC[C@H]1O[C@@H](O[C@H]2[C@H](O)[C@@H](O)[C@@H](O)O[C@@H]2CO)[C@H](O)[C@@H](O)[C@@H]1O", 0.999],
  ["CC(C)=CCc1c2c(c3occ(-c4ccc(O)c(O)c4)c(=O)c3c1O)C=CC(C)(C)O2", 0.986],
  ["NCC(=O)c1ccccc1", 0.997],
  ["NC(=O)NC(=O)Cc1ccccc1", 1],
  ["COC(=O)c1c(C)c2c(c(C)c1O)OC(=O)c1c(C)c(Cl)c(O)c(Cl)c1O2", 0.95],
  ["OC[C@H]1O[C@@H](O[C@@H]2[C@@H](CO)O[C@](O)(CO)[C@H]2O)[C@H](O)[C@@H](O)[C@H]1O", 1.02],
  ["N=C(N)N", 1],
  ["CN[C@@H]1[C@H](O)[C@H](NC)[C@H]2O[C@@]3(O)C(=O)C[C@@H](C)O[C@H]3O[C@@H]2[C@H]1O", 1.02],
  ["O=C(OCc1ccccc1)c1ccccc1", 0.965],
  ["Cc1cc(=O)oc2cc(O)cc(O)c12", 0.943],
  ["CC(=O)O[C@H]1CCC2(C)C3=C(CCC2C1(C)C)[C@@]1(C)CC[C@@H](C(C)CCC=C(C)C)[C@]1(C)CC3 (some centres not stated)", 1.04],
  ["COc1ccccc1OCC(O)CO (configuration not stated)", 1.02],
  ["CCN(CC)CCOCCOC(=O)C1(c2ccccc2)CCCC1", 0.991],
  ["CNCCCC12CCC(c3ccccc31)c1ccccc12", 1],
  ["CC(CCC(=O)O)[C@H]1CCC2C3C(=O)C[C@@H]4CC(=O)CC[C@]4(C)C3CC(=O)[C@@]21C (some centres not stated)", 0.992],
  ["CN(C)[C@@H]1C(=O)C(C(N)=O)=C(O)[C@@]2(O)C(=O)C3=C(O)c4c(O)ccc(Cl)c4[C@@H](O)[C@H]3C[C@@H]12", 0.988],
  ["O=C(O)c1ccccc1", 0.956],
  ["CC(C)=CC1C(C(=O)O)C1(C)C (configuration not stated)", 0.969],
  ["COC(=O)/C(=C1\\OC(=O)C(c2ccccc2)=C1O)c1ccccc1", 0.951],
  ["CC(C)=CCc1c2c(c3occ(-c4ccc(O)cc4)c(=O)c3c1O)C=CC(C)(C)O2", 0.976],
  ["CC(C)NCC(O)COc1ccc(COCCOC(C)C)cc1 (configuration not stated)", 1.01],
  ["NCC(N)C(=O)c1ccccc1 (configuration not stated)", 1.03],
  ["O=C1NC(O)=NC1(c1ccccc1)c1ccccc1", 1.03],
  ["Cc1nc(N)cc(C[n+]2csc(CCO)c2C)n1", 0.973],
  ["CCN(CC)CCOC(=O)C1(C2CCCCC2)CCCCC1", 0.985],
  ["CC(=O)Oc1ccc(O)cc1", 0.988],
  ["C=C1C[C@]23C[C@@]1(O)CC[C@H]2[C@@]12C=C[C@H](O)[C@@](C)(C(=O)O1)[C@H]2[C@@H]3C(=O)O", 1.03],
  ["NC(=O)c1cccnc1", 0.984],
  ["COc1ccc2cc(CCC(C)=O)ccc2c1", 0.99],
  ["Nc1ccc(S(=O)(=O)NC(=O)c2ccccc2)cc1", 0.964],
  ["COc1cc(C/C=C/c2ccccc2)c(OC)cc1O", 0.943],
  ["CN(C)C(=O)Oc1cccc([N+](C)(C)C)c1", 1.07]
]}
